- experimental-system: mICE (Mus musculus, UniProt P29452)
- Sequence (P29452 123-296 limits assumed): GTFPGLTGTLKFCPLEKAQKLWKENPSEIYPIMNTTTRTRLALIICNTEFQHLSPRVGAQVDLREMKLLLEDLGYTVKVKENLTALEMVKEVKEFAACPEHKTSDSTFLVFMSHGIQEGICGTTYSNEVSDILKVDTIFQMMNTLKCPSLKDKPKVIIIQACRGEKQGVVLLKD
- Sequence (P29452 315-402 limits assumed): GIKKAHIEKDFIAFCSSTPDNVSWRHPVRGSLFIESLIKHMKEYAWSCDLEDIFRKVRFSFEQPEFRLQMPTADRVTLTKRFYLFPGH
- assay-explanation: Dissociation constant Ki and irreversible rate constant k3 for irreversible inhibitors, ICE
- condition-info: continuous assay 60 min, reaction initiated by adding enzyme
pKi: −log10 of the molar value.
metric-name: pKi

Consider the reported pKi for these compounds:
compound | data-value
CC(C)[C@H](NC(=O)CCOc1cccc2ccccc12)C(=O)N[C@@H](CC(=O)O)C(=O)COC(=O)c1c(Cl)cccc1Cl [Example 158] | 6.77
CC(C)[C@H](NC(=O)COc1cccc2ccccc12)C(=O)N[C@@H](CC(=O)O)C(=O)COc1c(F)c(F)c(F)c(F)c1F [Example 80] | 6.03
Cc1nnc(SCC(=O)[C@H](CC(=O)O)NC(=O)[C@@H](NC(=O)COc2cccc3ccccc23)C(C)C)s1 [Example 128] | 6.67
CC(C)[C@H](NC(=O)COc1cccc2ccccc12)C(=O)N[C@@H](CC(=O)O)C(=O)COc1cc(C(F)(F)F)nn1-c1ccccc1 [Example 143] | 6.69
CC(C)[C@H](NC(=O)COc1cccc2ccccc12)C(=O)N[C@@H](CC(=O)O)C(=O)COc1c(-c2ccccc2)oc2ccccc2c1=O [Example 115] | 6.49
CC(C)[C@H](NC(=O)COc1cccc2ccccc12)C(=O)N[C@@H](CC(=O)O)C(=O)COc1ccc(F)c(F)c1 [Example 72] | 6.14

(A) C[C@H](NC(=O)COc1ccc2ccccc2c1)C(=O)NC(CC(=O)O)C(=O)COc1c(F)c(F)cc(F)c1F (stereo partly shown) [Example 176]
(B) CC(C)[C@H](NC(=O)COc1cccc2ccccc12)C(=O)N[C@@H](CC(=O)O)C(=O)COc1c(F)cc(F)cc1F [Example 78]
Exercise: Kindly compare A with B and tell me which has the lower pKi figure. Your answer should be the label attached to the chosen record.
Key: A
(A: 6.32, B: 6.86)

###

- experimental-system: CPP32 (Homo sapiens, UniProt P42574)
- Sequence (P42574 29-175 limits assumed, species assumed): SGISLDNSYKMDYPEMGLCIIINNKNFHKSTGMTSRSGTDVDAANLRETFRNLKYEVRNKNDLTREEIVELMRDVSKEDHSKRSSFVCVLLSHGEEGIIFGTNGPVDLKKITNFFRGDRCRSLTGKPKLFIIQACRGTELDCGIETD
- Sequence (P42574 176-277 limits assumed, species assumed): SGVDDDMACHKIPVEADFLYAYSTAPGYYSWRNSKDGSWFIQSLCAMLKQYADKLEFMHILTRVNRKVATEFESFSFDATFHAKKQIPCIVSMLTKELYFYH
- assay-explanation: Dissociation constant Ki and irreversible rate constant k3 for irreversible inhibitors, CPP32
- condition-info: continuous assay 60 min, reaction initiated by adding enzyme
pKi: −log10 of the molar value.
metric-name: pKi

Use the examples below as a reference point.
compound | pKi
CC(C)[C@H](NC(=O)COc1ccc2ccccc2c1)C(=O)N[C@@H](CC(=O)O)C(=O)COc1c(F)cc(F)cc1F | 6.83
CC(C)C[C@H](NC(=O)COc1c(C(=O)O)ccc2ccccc12)C(=O)N[C@@H](CC(=O)O)C(=O)COC(=O)c1c(Cl)cccc1Cl | 7.70

(a) CC(C)[C@H](NC(=O)COc1cccc2ccccc12)C(=O)N[C@@H](CC(=O)O)C(=O)COc1c(F)cccc1F
(b) CC(C)[C@H](NC(=O)COc1cccc2ccccc12)C(=O)N[C@@H](CC(=O)O)C(=O)COc1cc(F)ccc1F
Exercise: Between a and b , which one shows the smaller pKi number? Label of pick, please.
Key: b

(P) CCCCCCP(=O)(OCC(=O)[C@H](CC(=O)O)NC(=O)[C@@H](NC(=O)COc1cccc2ccccc12)C(C)C)c1ccccc1 (stereo partly shown)
(Q) CC(C)[C@H](NC(=O)COc1cccc2ccccc12)C(=O)N[C@@H](CC(=O)O)C(=O)COc1ccc(F)cc1F
Exercise: Which record shows the lower pKi: the first, P , or the second, Q ? # respond with the chosen item's label
Key: Q

(I) CC(C)[C@H](NC(=O)COc1cccc2ccccc12)C(=O)N[C@@H](CC(=O)O)C(=O)COc1cccc(F)c1
(II) CC(C)[C@H](NC(=O)COc1ccc2ccccc2c1)C(=O)N[C@@H](CC(=O)O)C(=O)COc1c(F)c(F)cc(F)c1F
Exercise: I'd appreciate it if you could identify which of I and II has the greater pKi. Pick one; state its label.
Key: I

(I) CC(C)[C@H](NC(=O)COc1ccccc1-c1ccccc1)C(=O)N[C@@H](CC(=O)O)C(=O)COc1c(F)c(F)cc(F)c1F
(II) CC(C)[C@H](NC(=O)CCOc1cccc2ccccc12)C(=O)NC(CC(=O)O)C(=O)CF (mixture of isomers)
Exercise: Could you tell me which of these two has the smaller pKi figure? First: I Second: II Field: selected label. Fill in the label of the entry you choose.
Key: II
(II: 6.73, I: 7.54)

###

Measured MCH-5 k3/Ki accompanies every entry in the list below.
- experimental-system: MCH-5 (Homo sapiens)
- Sequence (Q14790 217-374 limits assumed, species assumed): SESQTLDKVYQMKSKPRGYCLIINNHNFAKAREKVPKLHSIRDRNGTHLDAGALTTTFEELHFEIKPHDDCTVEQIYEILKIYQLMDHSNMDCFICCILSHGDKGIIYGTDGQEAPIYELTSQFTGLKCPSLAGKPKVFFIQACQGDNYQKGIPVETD
- Sequence (Q14790 385-479 limits assumed, species assumed): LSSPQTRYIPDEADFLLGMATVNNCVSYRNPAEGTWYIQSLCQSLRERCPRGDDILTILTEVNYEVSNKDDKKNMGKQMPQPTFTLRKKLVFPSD
- assay-explanation: Dissociation constant Ki and irreversible rate constant k3 for irreversible inhibitors, Mch5
- Assay type: biochemical
- condition-info: continuous assay 60 min, reaction initiated by adding enzyme

Below, 3 molecules whose answers are already recorded.
molecule | MCH-5 k3/Ki
CC(C)C[C@H](NC(=O)COc1c(C(=O)O)ccc2ccccc12)C(=O)N[C@@H](CC(=O)O)C(=O)COP(=O)(c1ccccc1)c1ccccc1 | 80,000 M^−1s^−1
CC(C)[C@H](NC(=O)COc1cccc2ccccc12)C(=O)N[C@@H](CC(=O)O)C(=O)COP(C)(=O)c1ccc(F)cc1 (stereo partly shown) | 9,890 M^−1s^−1
CC(C)C[C@H](NC(=O)COc1c(C(=O)O)ccc2ccccc12)C(=O)N[C@@H](CC(=O)O)C(=O)COc1c(F)c(F)cc(F)c1F | 13,600 M^−1s^−1

Exercise: // fetch MCH-5 (Homo sapiens) MCH-5 k3/Ki for CC(C)[C@H](NC(=O)CCOc1ccccc1)C(=O)N[C@@H](CC(=O)O)C(=O)COc1c(F)c(F)cc(F)c1F
Key: 3,680 M^−1s^−1

###

- experimental-system: MCH-2 (Homo sapiens)
- assay-explanation: Fluorescence enzyme assay, IC50 determination, Mch2
- Assay type: biochemical
- condition-info: Table 3; method of Preparation 3A; read-out: MCH2 I50
metric-name: IC50 (µM)

# annotated cases, reported IC50 shown
compound | IC50, µM
CC(C)C[C@H](NC(=O)COc1cccc2cccnc12)C(=O)N[C@H](C=O)CC(=O)O [Example 34] | 12.5
CC(C)C[C@H](NC(=O)COc1ccc(OCc2ccccc2)cc1)C(=O)N[C@H](C=O)CC(=O)O [Example 46] | 33.4
CC(C)C[C@H](NC(=O)COc1ccccc1OCc1ccccc1)C(=O)N[C@H](C=O)CC(=O)O [Example 45] | 9.75
CC(C)C[C@H](NC(=O)COc1ccc2ccccc2c1)C(=O)N[C@H](C=O)CC(=O)O [Example 13] | 18.6
CC(C)C[C@H](NC(=O)COc1ccc(Cc2ccccc2)cc1)C(=O)N[C@H](C=O)CC(=O)O [Example 43] | 18.9

(P) COc1ccc(OCC(=O)N[C@@H](CC(C)C)C(=O)N[C@H](C=O)CC(=O)O)c2ccccc12 [Example 27]
(Q) CC(C)C[C@H](NC(=O)CCSc1ccc2ccccc2c1)C(=O)N[C@H](C=O)CC(=O)O [Example 25]
Exercise: // pick min by IC50: P , Q Use the label to indicate which entry you chose.
Key: Q
(Q: 1.62 µM, P: 22.6 µM)

###

- experimental-system: mICE (Mus musculus)
- assay-explanation: Dissociation constant Ki and irreversible rate constant k3 for irreversible inhibitors, ICE
- condition-info: continuous assay 60 min, reaction initiated by adding enzyme
pKi: −log10 of the molar value.
metric-name: pKi

Reference set (3 entries):
compound | pKi
COC(=O)c1cc(OCC(=O)[C@H](CC(=O)O)NC(=O)[C@@H](NC(=O)COc2cccc3ccccc23)C(C)C)no1 [Example 144] | 6.90
CC(C)[C@H](NC(=O)COc1cccc2ccccc12)C(=O)N[C@@H](CC(=O)O)C(=O)COc1c(F)cccc1F [Example 71] | 6.71
O=C(O)CC(NC(=O)[C@@H]1CCCCN1C(=O)COc1cccc2ccccc12)C(=O)CF (stereo partly drawn) [Example 59] | 6.74

(1) CCCCCCP(=O)(OCC(=O)[C@H](CC(=O)O)NC(=O)[C@@H](NC(=O)COc1cccc2ccccc12)C(C)C)c1ccc(F)cc1 (stereo partly drawn) [Example 109]
(2) CCCCCCP(=O)(OCC(=O)[C@H](CC(=O)O)NC(=O)[C@@H](NC(=O)COc1cccc2ccccc12)C(C)C)c1ccccc1 (stereo partly drawn) [Example 106]
(3) CC(C)[C@H](NC(=O)COc1cccc2ccccc12)C(=O)N[C@@H](CC(=O)O)C(=O)COP(=O)(Cc1ccccc1)c1ccccc1 (stereo partly drawn) [Example 107]
Exercise: // ascending sort on recorded pKi Reply: labels, ordered per the request.
Key: 1, 2, 3
(1: 6.34, 2: 6.78, 3: 7.18)

###

- experimental-system: MCH-2 (Homo sapiens, UniProt P55212)
- Sequence (P55212 24-179 limits assumed): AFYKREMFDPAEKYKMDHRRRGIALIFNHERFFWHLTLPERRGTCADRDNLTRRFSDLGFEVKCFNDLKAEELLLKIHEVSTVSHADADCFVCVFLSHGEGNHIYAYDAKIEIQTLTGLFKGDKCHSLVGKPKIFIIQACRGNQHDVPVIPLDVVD
- Sequence (P55212 194-293 limits assumed): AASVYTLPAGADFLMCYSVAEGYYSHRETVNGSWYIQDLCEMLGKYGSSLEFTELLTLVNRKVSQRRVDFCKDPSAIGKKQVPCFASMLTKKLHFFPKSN
- assay-explanation: Dissociation constant Ki and irreversible rate constant k3 for irreversible inhibitors, Mch2
- Format: biochemical
- condition-info: continuous assay 60 min, reaction initiated by adding enzyme
metric-name: MCH-2 k3/Ki

molecule | metric-name | data-value
CC(C)[C@H](NC(=O)COc1cccc2ccccc12)C(=O)N[C@@H](CC(=O)O)C(=O)COc1ccccc1 [Example 64] | MCH-2 k3/Ki | 2,400 M^−1s^−1
CC(C)[C@H](NC(=O)COc1cccc2ccccc12)C(=O)N[C@@H](CC(=O)O)C(=O)COc1c(F)c(F)c(F)c(F)c1F [Example 80] | MCH-2 k3/Ki | 13,600 M^−1s^−1
CC(C)[C@H](NC(=O)COc1ccc2ccccc2c1)C(=O)N[C@@H](CC(=O)O)C(=O)COC(=O)c1c(Cl)cccc1Cl [Example 155] | MCH-2 k3/Ki | 166,000 M^−1s^−1
CC(C)[C@H](NC(=O)COc1cccc2ccccc12)C(=O)N[C@@H](CC(=O)O)C(=O)COc1c(F)cccc1F [Example 71] | MCH-2 k3/Ki | 9,980 M^−1s^−1
CC(C)[C@H](NC(=O)COc1ccccc1-c1ccccc1)C(=O)N[C@@H](CC(=O)O)C(=O)COC(=O)c1c(Cl)cccc1Cl [Example 150] | MCH-2 k3/Ki | 400,000 M^−1s^−1
CC(C)[C@H](NC(=O)COc1cccc2ccccc12)C(=O)N[C@@H](CC(=O)O)C(=O)COP(=O)(Cc1ccccc1)c1ccccc1 (stereo partly shown) [Example 107] | MCH-2 k3/Ki | 187,000 M^−1s^−1

Could you now consider this next molecule?
Exercise: Query the reported MCH-2 k3/Ki for MCH-2 (Homo sapiens, UniProt P55212); item: O=C(O)CC(NC(=O)[C@@H]1CCCCN1C(=O)COc1cccc2ccccc12)C(=O)CF (stereo partly shown) [Example 59]
Key: 10,100 M^−1s^−1
